Reference source: ChEMBL document CHEMBL4145528

System: THP-1
PROTOCOL: Cytotoxicity against human THP1 cells assessed as reduction in cell viability after 24 hrs by MTT assay
Format: functional, cell-based
CONDITION INFO: THP-1, 24 h
Attribute: pIC50
In plain terms, pIC50 is the concentration in mol/L turned into minus its base-10 logarithm.

Consider the following illustrative entries.
1. COc1cc(/C=C2\CN(C)C/C(=C\c3ccc(F)cc3)C2=O)cc(OC)c1: 5.30
2. COc1cc(/C=C2\CN(C)C/C(=C\c3ccc(Cl)cc3Cl)C2=O)cc(OC)c1OC: 5.30

In the following, a different molecule is considered.
Task item: Which value of pIC50 has been reported for CN1C/C(=C\c2ccc(F)cc2)C(=O)/C(=C/c2ccc(C#N)cc2)C1 in the records?
Reply: 5.30
